- target.or.system: rSARS2 RBD aa319-541, N439K, C-His (SARS-CoV-2, UniProt P0DTC2 319-541)
- test.description: flow cytometry, blocking of binding to hACE-2 cells
Items are presented alongside their recorded percent blocking.
experimental.endpoint: percent blocking (%)

INSERT INTO results (binder, unit_label, test_result) VALUES
  ('1035709 (antibody, V domains shown) VH: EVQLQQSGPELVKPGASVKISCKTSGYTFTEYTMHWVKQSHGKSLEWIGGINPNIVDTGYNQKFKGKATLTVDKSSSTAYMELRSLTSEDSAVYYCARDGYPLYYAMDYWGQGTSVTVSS VL: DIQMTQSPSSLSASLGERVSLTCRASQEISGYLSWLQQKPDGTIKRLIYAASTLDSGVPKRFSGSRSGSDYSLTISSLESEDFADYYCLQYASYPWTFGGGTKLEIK', '%', 90.8),
  ('1035423 (antibody, V domains shown) VH: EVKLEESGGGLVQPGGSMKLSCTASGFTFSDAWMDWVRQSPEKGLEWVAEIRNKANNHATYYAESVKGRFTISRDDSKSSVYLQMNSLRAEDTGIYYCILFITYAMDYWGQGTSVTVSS VL: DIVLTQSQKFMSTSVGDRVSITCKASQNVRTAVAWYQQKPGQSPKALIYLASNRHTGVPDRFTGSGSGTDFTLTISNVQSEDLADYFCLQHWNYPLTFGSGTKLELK', '%', 34.6),
  ('1035419 (antibody, V domains shown) VH: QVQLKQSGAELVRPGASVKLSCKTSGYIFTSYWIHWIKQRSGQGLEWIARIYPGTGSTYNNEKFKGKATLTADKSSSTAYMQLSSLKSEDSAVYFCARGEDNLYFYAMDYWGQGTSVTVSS VL: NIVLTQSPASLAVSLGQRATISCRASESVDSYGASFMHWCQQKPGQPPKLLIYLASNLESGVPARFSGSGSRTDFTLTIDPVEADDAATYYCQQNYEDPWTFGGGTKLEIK', '%', 69.3),
  ('1035211 (antibody, V domains shown) VH: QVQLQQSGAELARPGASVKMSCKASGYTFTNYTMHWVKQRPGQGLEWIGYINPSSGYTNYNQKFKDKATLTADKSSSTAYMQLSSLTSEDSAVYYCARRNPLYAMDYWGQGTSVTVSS VL: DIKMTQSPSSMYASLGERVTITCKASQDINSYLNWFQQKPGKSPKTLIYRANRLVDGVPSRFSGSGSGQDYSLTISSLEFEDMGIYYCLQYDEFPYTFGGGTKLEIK', '%', 18.1);
